Values were extracted from PubChem BioAssay (NCI).

Consider the following molecules; for each one, report its growth.
# Test system: U251 CNS
# test_details: NCI-60 one-dose screen, 48 h (100 = growth as untreated, 0 = no growth, -100 = all killed)
# cond: 10 µM unless noted
The panel holds about 83,000 compounds, 20% with a hit somewhere; the sample as a whole holds those more often. Active and inactive are the calls of the source. How the source made its calls: active means growth percent below 10; inactive means the rest.

Illustrative cases are given below, each with its answer.
CC1(C)CC[C@]23CC[C@]4(C)[C@H](CC[C@@H]5[C@@]6(C)CC[C@H](N)C(C)(C)[C@@H]6CC[C@]54C)[C@H]2[C@H]1OC3
-47.9% (active)
C#CCOc1ccccc1C(OC(=O)c1ccccc1)C(=O)NC(C)(C)C(C)(C)C (centres undefined)
87.1% (inactive)
COc1ccc(/C=N/NC(=O)CSc2nc(-c3cnccn3)cc(-c3cccs3)c2C#N)cc1
68.1% (inactive)
Nc1cc(C(=O)N/N=C\c2ccc(OC(F)F)c(OC3CCCC3)c2)nn1CC(O)c1ccccc1 (centres undefined)
94.7% (inactive)
O=C(CSc1nc2ccccc2c(=O)n1-c1ccccc1)N/N=C/c1ccc(Oc2ccc(Cl)cc2)cc1
15.2% (inactive)

Hi! Can you tell me growth for each of these molecules?
1. Cc1ccc2c(n1)C(=O)C(Cl)=C(Nc1cccc(C(F)(F)F)c1)C2=O
2. CCN(CC)S(=O)(=O)c1ccc(-c2nc(C(Cl)Cl)nc3cc(-c4ccc(F)cc4)nn23)cc1
3. COc1cc(C(=O)c2cc(C(C)=O)c3cccc(C)n23)cc(OC)c1OC

95.7% (inactive)
17.7% (inactive)
30.9% (inactive)

Record lookup: for U251 CNS, what growth belongs to Fc1ccc(-c2cn3c(-c4c[nH]c5ccc(Br)cc45)csc3n2)cc1 ?
47.8% (inactive)

---

# Test system: NCI/ADR-RES ovarian
# test_details: NCI-60 one-dose screen, 48 h (100 = growth as untreated, 0 = no growth, -100 = all killed)
# cond: 10 µM unless noted
This is part of a sample that, as a whole, favours compounds with a hit. Of some 83,000 tested, about 20% had one in any assay.
recorded_metric: growth (%)
Answers are plain numbers, in %.

Illustrative cases are given below, each with its answer.
Brc1ccc(-c2cc(-c3ccc4c(c3)OC=CO4)n[nH]2)s1
76.8
CN1CCN(Cc2ccc(NC(=O)c3cncc(C#Cc4cnc5ccc(NCCO)nn45)c3)cc2C(F)(F)F)CC1
81.1

Hi! Can you tell me growth for each of these compounds?
1. CC1=Cc2ccccc2OC12C=Cc1ccccc1O2 (stereo not given)
2. O=C(N/N=C\c1ccc(F)cc1)c1ccc2nc(-c3ccc(Br)cc3)[nH]c2c1
3. Cc1ncn(-c2ccc(/C=N/Nc3ccnc4cc(Cl)ccc34)cc2)c1C
4. Nc1ncc(-c2ccc3ncnc(NCc4ccccc4)c3c2)cn1
5. COc1ccc2[nH]cc(-c3nc(N)nnc3-c3cn(C)c4ccc(Br)cc34)c2c1
6. O=C(CSc1nnc(-c2cccs2)n1-c1ccccc1)Nc1ccccc1
7. O=C(NCCNc1cc(-c2cn(-c3ccccc3)nc2-c2cccc(O)c2)ccn1)Nc1cc(C(F)(F)F)cc(C(F)(F)F)c1
8. CCc1nnc(NC(=O)c2cc(-c3ccc(Cl)cc3Cl)oc2C)s1

98.6
68.2
8.02
69
64.3
61.9
91.9
88.7

---

Consider the following molecules; for each one, report its growth.
# System: SF-268 CNS
# test_details: NCI-60 one-dose screen, 48 h (100 = growth as untreated, 0 = no growth, -100 = all killed)
# cond: 10 µM unless noted
This is part of a sample that, as a whole, favours compounds with a hit. Of some 83,000 tested, about 20% had one in any assay. Active and inactive are the calls of the source. The calls were made as follows: active = growth percent below 10; inactive = the rest.

Illustrative cases are given below, each with its answer.
C/C(=N\NC(=O)/C=C/CC(=O)O)c1nnn(-c2ccc([N+](=O)[O-])cc2)c1C
96.9% (inactive)
CS(=O)(=O)c1nccc(-c2c(-c3cccc(OCc4ccc(Cl)c(C(F)(F)F)c4)c3)nc3sccn23)n1
104% (inactive)
CCCCSC1=C(Cl)CN(c2ccccc2)C1=O
106% (inactive)
O=C(/C=C/c1cccc(F)c1)c1cccc(OCCCCOc2cccc(C(=O)/C=C/c3cccc(F)c3)c2)c1
99.7% (inactive)
O=C(CCl)Nc1ccc(NC(=O)c2cc(Cl)ccc2O)c(Cl)c1
85% (inactive)

Hi! Can you tell me growth for each of these molecules?
1. Cc1[nH]c(C(=O)Nc2ccc(S(=O)(=O)N3CCCCC3)cc2OCCOCCOCCOCCOCCOCCOCCOCCOCCOc2cc(S(=O)(=O)N3CCCCC3)ccc2NC(=O)c2[nH]c(C)c3c2CCCCC3=O)c2c1C(=O)CCCC2
2. Cc1ccc(S(=O)(=O)NCCCNc2nccc(-c3[nH]c(-c4ccccc4)nc3-c3ccc(F)c(O)c3)n2)cc1

1: 44.3% (inactive); 2: 105% (inactive)

Item under review: Cc1cc(=O)oc2cc(OCCCOc3ccc(/C=C/C(=O)Nc4ccc(Br)cc4)cc3)ccc12 . Reported growth?
67.8% (inactive)

---

Consider the following compounds; for each one, report its growth.
# Test system: RXF 393 renal
# test_details: NCI-60 one-dose screen, 48 h (100 = growth as untreated, 0 = no growth, -100 = all killed)
# cond: 10 µM unless noted
The panel holds about 83,000 compounds, 20% with a hit somewhere; the sample as a whole holds those more often. Calls of active or inactive are those of the source. How the source made its calls: active means growth percent below 10; inactive means the rest.

Illustrative cases are given below, each with its answer.
O=S(=O)(Oc1ccc(-c2cn3ccoc3n2)cc1)C1CCCCC1
122% (inactive)
CCCCN1C(=O)/C(=c2\sc3n(c2=O)C2C(NN=3)N(CC)C(=O)N2CC)c2cccc(C)c21 (centres undefined)
11.9% (inactive)
Cn1cc(-c2nc(N)nnc2-c2c[nH]c3ccc(Br)cc23)c2cc(F)ccc21
93.6% (inactive)

Hi! Can you tell me growth for each of these compounds?
1. Cc1ccsc1[C@H]1c2[nH]c3ccccc3c2C[C@H]2C(=O)N(CCCCCCC(=O)NO)CC(=O)N12
2. CSc1ccc(/C(=N/N=C(N)N)c2ccc(F)cc2)cc1
3. CC(=C(c1ccc(OCCN(C)C)cc1)c1ccc(OCCN(C)C)cc1)c1ccc(Cl)cc1
4. CCCCCc1ccc(S(=O)(=O)Nc2cc(-c3csc(N)n3)ccc2OC)cc1
5. Cc1ccc(S(=O)(=O)NCCCNc2nccc(-c3[nH]c(-c4ccccc4)nc3-c3ccc(F)c(O)c3)n2)cc1

1: 85.9% (inactive); 2: -4.77% (active); 3: -86.6% (active); 4: 99.7% (inactive); 5: 97.9% (inactive)

Item under review: CCN(CC)CCOc1ccc(C(=C(C)c2ccc(OC)cc2)c2ccc(OCCN(CC)CC)cc2)cc1 . Reported growth?
-77.8% (active)

---

# System: SF-268 CNS
# test_details: NCI-60 one-dose screen, 48 h (100 = growth as untreated, 0 = no growth, -100 = all killed)
# cond: 10 µM unless noted
Compounds without any hit were thinned out: in the full panel of roughly 83,000, 20% have a hit. The source made the active and inactive calls. How the source made its calls: active means growth percent below 10; inactive means the rest.
Consider the following compounds; for each one, report its growth.

Illustrative cases are given below, each with its answer.
COc1ccc(Cn2cc(C#N)c(N)c2C(C)=O)cc1
96.5% (inactive)
CCNC(=O)Oc1ccc(/C(=C(/C)c2ccc(OC)cc2)c2ccc(OCCN3CCCCCC3)cc2)cc1
64% (inactive)
CC(C)(C)c1cc(NC(=O)Nc2ccc(-c3cn4c5c(sc4n3)CCc3c[nH]cc3-5)cc2)no1
32.7% (inactive)
O=C(CSc1nc2ccccc2c(=O)n1-c1ccc(Cl)cc1)N/N=C/c1ccc(Oc2ccc(Cl)cc2)cc1
55.8% (inactive)

--- query ---
Record lookup: for SF-268 CNS, what growth belongs to O=C1[C@@H]2Cc3c([nH]c4ccccc34)[C@H](c3ccc(Br)cc3)N2C(=O)CN1C1CCN(Cc2c(Cl)cccc2Cl)CC1 ?
81.3% (inactive)

---

# Test system: MALME-3M melanoma
# test_details: NCI-60 one-dose screen, 48 h
# cond: 10 µM unless noted
The panel holds about 83,000 compounds, 20% with a hit somewhere; the sample as a whole holds those more often. Active and inactive are the calls of the source. Rule for the calls: active = growth percent below 10; inactive = the rest.
Returns: one label drawn from Y (active), N (inactive)

Cn1cc(-c2nnc(N)nc2-c2c[nH]c3ccc(Br)cc23)c2cc(Br)ccc21
N

# outcome recorded in this test, key = N#Cc1cnc2ccc(-c3cnc4n[nH]nc4c3)cc2c1N1CCc2cc(F)c(Cl)cc21
Y

// next record Brc1cc(-c2cc(-c3ccc4c(c3)OC=CO4)[nH]n2)cs1
N

// next record C#C[C@]1(O)CC[C@H]2[C@@H]3CC=C4c5sc(Nc6ccc(C)cn6)nc5CC[C@]4(C)[C@H]3CC[C@@]21C
Y

// next record COc1ccc(/C(=N\N=C(N)N)c2ccc(Cl)cc2)cc1OC
N

// next record Cc1ccc(N2CCN(C3=C(Cl)C(=O)c4ncccc4C3=O)CC2)cc1
N

// next record CN(C)S(=O)(=O)c1ccc(-c2nc(C(Cl)Cl)nc3cc(-c4ccc(F)cc4)nn23)cc1
Y

// next record CN1CCN(c2ccc(Nc3nc(NCCNS(=O)(=O)c4ccc5ccccc5c4)c4sccc4n3)cc2)CC1
Y

// next record O=C(/C=C/c1cccc(F)c1)c1cccc(OCCCCOc2cccc(C(=O)/C=C/c3cccc(F)c3)c2)c1
N

// next record C=C(C)[C@@H]1CC[C@]2(C(=O)O)CC[C@]3(C)[C@H](CC[C@@H]4[C@@]5(C)C/C(=C/c6ccccn6)C(=O)C(C)(C)[C@@H]5CC[C@]43C)[C@@H]12
N

// next record Cc1ccc2c(n1)C(=O)C(Cl)=C(Nc1cc(C(F)(F)F)cc(C(F)(F)F)c1)C2=O
N

// next record COc1cc(C(C)=C(c2ccc(OCCN(C)C)cc2)c2ccc(OCCN(C)C)cc2)ccc1F
N

// next record COc1ccc(/C=N\NC(=O)c2cnn(CC(O)c3ccccc3)c2N)cc1OCc1ccc(Cl)cc1 (stereo not drawn)
N

// next record C[C@H](Nc1ncnc2ccc(-c3cnc(Cl)c(NS(C)(=O)=O)c3)cc12)c1ccccc1
Y

// next record CC[C@]12C=CCN3CC[C@@]4(c5ccc(OC)cc5N(C)[C@H]4[C@@](O)(C(=O)OC)[C@@H]1OC(=O)CCN1CCc4ccccc4C1)[C@@H]32
N

// next record C#CCOc1cccc(-c2nc(N)nc(Nc3ccccc3SSc3ccccc3Nc3nc(N)nc(-c4cccc(OCC#C)c4)n3)n2)c1
N

// next record Cc1cc(=O)oc2cc(OCCCOc3ccc(/C=C/C(=O)Nc4ccc(Br)cc4)cc3)ccc12
N

// next record Brc1cc(-c2cc(-c3ccc4c(c3)OCCO4)[nH]n2)cs1
N
